# Assayed Target: T1, IL-18 receptor (IL-18Rα / IL-18Rβ heterodimer) on HEK-Blue IL-18 reporter cells (UniProt Q13478 19-541; O95256 20-599, limits assumed)
# T1 sequence (looked up) 1: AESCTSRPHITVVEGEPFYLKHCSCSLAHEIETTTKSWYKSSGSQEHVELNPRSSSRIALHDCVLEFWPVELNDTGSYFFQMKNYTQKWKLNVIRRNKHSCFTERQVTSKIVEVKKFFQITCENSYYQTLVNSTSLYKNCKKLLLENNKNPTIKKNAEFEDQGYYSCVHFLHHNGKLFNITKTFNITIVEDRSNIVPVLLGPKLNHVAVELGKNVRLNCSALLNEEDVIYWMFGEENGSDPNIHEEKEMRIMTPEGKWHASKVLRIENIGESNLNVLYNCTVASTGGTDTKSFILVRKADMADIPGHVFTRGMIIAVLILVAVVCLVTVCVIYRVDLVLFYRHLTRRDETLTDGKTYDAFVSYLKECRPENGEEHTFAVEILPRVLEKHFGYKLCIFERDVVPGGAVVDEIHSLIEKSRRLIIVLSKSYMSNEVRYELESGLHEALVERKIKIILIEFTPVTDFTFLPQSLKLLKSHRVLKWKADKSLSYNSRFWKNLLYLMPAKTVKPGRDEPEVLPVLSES
# T1 sequence (looked up) 2: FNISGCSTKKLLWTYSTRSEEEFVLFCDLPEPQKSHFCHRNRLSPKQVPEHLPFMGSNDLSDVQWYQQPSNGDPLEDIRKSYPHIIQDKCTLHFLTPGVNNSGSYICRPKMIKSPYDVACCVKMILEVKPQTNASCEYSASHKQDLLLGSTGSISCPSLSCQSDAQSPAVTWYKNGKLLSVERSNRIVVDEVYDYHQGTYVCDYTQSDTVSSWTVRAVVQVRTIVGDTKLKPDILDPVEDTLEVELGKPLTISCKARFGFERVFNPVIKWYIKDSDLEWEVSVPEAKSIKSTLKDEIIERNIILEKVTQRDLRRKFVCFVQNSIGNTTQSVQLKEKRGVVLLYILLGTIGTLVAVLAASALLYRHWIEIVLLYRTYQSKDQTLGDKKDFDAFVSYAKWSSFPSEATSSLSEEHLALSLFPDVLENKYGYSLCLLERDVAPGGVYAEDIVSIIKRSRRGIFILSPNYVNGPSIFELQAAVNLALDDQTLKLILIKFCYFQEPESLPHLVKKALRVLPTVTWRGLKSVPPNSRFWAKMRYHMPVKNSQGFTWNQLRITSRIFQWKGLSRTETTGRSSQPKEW
# Assay Info: cell-based or functional assay
Quantity Measured: EC50-#2 (M), HEK-Blue reporter
One number for each entry, in M.

Worked cases, answers included:
SEQ ID NO: 16 (SEQ ID NO: 89 plus C38S/C68G) (ligand) YFGKLESKLSVIRNLNDQVLFIDQGNRPLFEDMTDSDSRDNAPRTIFIISKYSDSLARGLAVTISVKGEKISTLSCENKIISFKEMNPPDNIKDTKSDIIFFQRDVPGHSRKMQFESSSYEGYFLACEKERDLFKLILKKEDELGDRSIMFTVQNED
1.54e-10
SEQ ID NO: 6 (SEQ ID NO: 89 plus C38S/C68S) (ligand) YFGKLESKLSVIRNLNDQVLFIDQGNRPLFEDMTDSDSRDNAPRTIFIISKYSDSLARGLAVTISVKSEKISTLSCENKIISFKEMNPPDNIKDTKSDIIFFQRDVPGHSRKMQFESSSYEGYFLACEKERDLFKLILKKEDELGDRSIMFTVQNED
1.3e-10

Give its EC50-#2 (M), HEK-Blue reporter value. Item: SEQ ID NO: 21 (SEQ ID NO: 89 plus C38S/C68N) (ligand) YFGKLESKLSVIRNLNDQVLFIDQGNRPLFEDMTDSDSRDNAPRTIFIISKYSDSLARGLAVTISVKNEKISTLSCENKIISFKEMNPPDNIKDTKSDIIFFQRDVPGHSRKMQFESSSYEGYFLACEKERDLFKLILKKEDELGDRSIMFTVQNED
1.24e-10
